The origin of these recorded values is paper PMC5540273.

System: JAK1(JH2domain-pseudokinase)
condition context: concentration: 1 μM, replicates: in singlicate; n = 1;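 also: KINOMEscan kinase panel screen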
quantity kind: %Inh
A complete answer gives the number followed by the unit.

Problem: Give %Inh for `COc1ccc(CSc2nnc(-c3ccc4ncsc4c3)o2)cc1C(F)(F)F`
Result: 0%

Problem: Kindly indicate its recorded %Inh. Item: `c1ccc(-c2ccnc3[nH]ccc23)cc1`
Result: 2%

Problem: Please list %Inh recorded for the compound `Cc1ccc(NC(=O)c2ccc(Cl)cc2)cc1-c1ccc(C(=O)Nc2ccncc2)cc1`
Result: 0%

Problem: Quote %Inh reported for `Fc1ccc(-c2nc3n(c2-c2ccncc2)CCS3)cc1` please.
Result: 0%

Problem: Specify reported %Inh for the compound shown: `Cc1ccccc1-c1cc(-c2c[nH]nc2-c2ccccn2)ccn1`
Result: 0%

Problem: Provide measured %Inh value, entry: `Cc1ccc(NC(=O)Nc2ccccc2F)cc1-c1ccc(C(=O)Nc2ccncc2)cc1`
Result: 0%

Problem: # return recorded %Inh for entry `CCCCc1nn2ncccc2c1-c1ccnc(NC2CC2)n1`
Result: 0%

Problem: Give reported %Inh value for COC(=O)C(NC(=O)NC1CCN(c2ccnc(Nc3ccc(F)cc3)n2)C1)c1ccccc1 (stereo not shown)
Result: 5%

Problem: Respond only with %Inh recorded for `CS(=O)(=O)CCNCc1nc(-c2ccc3ncnc(Nc4ccc5c(cnn5Cc5ccccc5)c4)c3c2)cs1.Cl.Cl`
Result: 0%

Problem: Give me measured %Inh, please, for this compound: `CS(=O)(=O)Cc1ccc(Nc2nccc(-c3c(-c4cccc(NC(=O)C5CCCCC5)c4)nn4ncccc34)n2)cc1`
Result: 0%

Problem: Please report %Inh for the following compound: `CNCc1ccc2nc(NC(=O)c3ccc(C(C)(C)C)cc3)cn2c1`
Result: 17%

Problem: Report measured %Inh; entry is `COc1ccc(CSc2nnc(-c3ccc4c(c3)CCO4)o2)cc1`
Result: 0%

Problem: Please report %Inh for the following compound: `Cc1ccccc1Cn1ccn2c(=O)cc(N3CCOCC3)nc12`
Result: 0%

====

Test system: PDPK1
condition context: concentration: 1 μM, replicates: in singlicate; n = 1
What %Inh was measured for each of the following?
Expressed in %, but write only the number.

Problem: Under PDPK1, report %Inh for `CC(=O)c1c(C)c2cnc(Nc3ccc(N4CCNCC4)cn3)nc2n(C2CCCC2)c1=O`
Result: 0

Problem: Report value only: %Inh, PDPK1, `Nc1ncnc2occ(-c3ccc4c(c3)CCN4C(=O)Cc3cc(F)ccc3F)c12`
Result: 0

Problem: State the measured %Inh (PDPK1) of `COc1ccc(-c2coc3ccc(-c4nnc(C)o4)cc23)cc1`
Result: 33

Problem: Enter measured %Inh, system PDPK1, for the compound shown: `O=c1cc(N2CCOCC2)nc2n(Cc3ccccc3F)ccn12`
Result: 0

Problem: Report %Inh on PDPK1 for this entry: COC(=O)c1cccc(NC(=O)NC2CCN(c3ccnc(Nc4ccc(OC)cc4)n3)C2)c1 (centres unmarked)
Result: 0

Problem: Fill in %Inh for `O=C1NC(=O)C(c2ccc(Cl)cc2)=C1Nc1ccc(O)cc1` tested with PDPK1.
Result: 17

Problem: Under PDPK1: report %Inh of `O=C(Nc1n[nH]c2nc(-c3cccs3)c(Br)cc12)C1CCCC1` .
Result: 0

Problem: Recall the reported %Inh of `COc1ccc(CSc2nnc(-c3ccc4ncsc4c3)o2)cc1C(F)(F)F` on PDPK1 and write it down.
Result: 10

Problem: State %Inh on PDPK1. Entry: `Cc1ccc(NC(=O)Nc2ccc(Cl)c(C(F)(F)F)c2)cc1-c1ccc(C(=O)Nc2ccncc2)cc1`
Result: 26

Problem: Specify %Inh for `Cc1c(Cn2c3ccccc3n3c(=O)cc(N4CCOCC4)nc23)cccc1C(F)(F)F` , system PDPK1.
Result: 0

Problem: GET %Inh | system: PDPK1 | item: `FC(F)(F)c1ccccc1-c1cc(-c2c[nH]nc2-c2ccccn2)ccn1`
Result: 18

Problem: Under PDPK1: report %Inh of COC(=O)C(NC(=O)NC1CCN(c2ccnc(Nc3ccc(F)cc3)n2)C1)c1ccccc1 (centres unmarked) .
Result: 0

Problem: State %Inh on PDPK1. Entry: `CC[C@@H]1CO[C@H](C(=O)Nc2ccccc2)CN1c1cc(-c2ccc3c(N)n[nH]c3c2)nc(NC)n1`
Result: 94.6

Problem: Tell me its %Inh on PDPK1: `Cc1ccc(NC(=O)Nc2ccccc2F)cc1-c1ccc(C(=O)Nc2ccncc2)cc1`
Result: 19
